Tested on: RPMI-8226 leukemia
Test Summary: NCI-60 one-dose screen, 48 h (100 = growth as untreated, 0 = no growth, -100 = all killed)
Condition Details: 10 µM unless noted
About 83,000 compounds went through this panel and 20% of them were active in at least one assay; those are over-represented in the sample as a whole. Active and inactive are the calls of the source. How the source made its calls: active means growth percent below 10; inactive means the rest.

Compound	growth
COc1cccc(N2CCN(c3cccc(C)n3)CC2)c1	115% (inactive)
COc1ccc(C2=NN(C(C)=O)C(c3c(C)nn(-c4ccccc4)c3N3CCOCC3)C2)cc1 (centres undefined)	97.9% (inactive)
CC(=O)/C(=C/c1ccc(Cl)cc1)C(=O)c1ccccc1	34.8% (inactive)
c1ccc(N2c3nc4ccccc4cc3Sc3cc4ccccc4nc32)nc1	80.9% (inactive)
CCNCCCn1c2c(c3ccc(F)cc3c1=O)C(=O)c1cc(OC)cnc1-2	-25.7% (active)
CC(=O)N1N=C(c2ccc(Cl)cc2)CC1c1c(C)nn(-c2ccccc2)c1N(C)Cc1ccccc1 (centres undefined)	46.8% (inactive)
CCSc1nc(-c2ccc(F)cc2)c(C#N)c(=O)[nH]1	105% (inactive)
COc1ccc2ncccc2c1Cc1c(OC)ccc2ncccc12	69.2% (inactive)
CC[n+]1c(/C=C/c2ccc(N3CCCC3)cc2)cccc1/C=C/c1ccc(N2CCCC2)cc1	-41.1% (active)
CCOC(=O)C1=CCC(n2cc(C)c(=O)[nH]c2=O)O1 (centres undefined)	106% (inactive)
COc1cccc(/C=N/Nc2nc3ccccc3s2)c1OC	74.8% (inactive)
COc1cc(-c2nc3sc4c(c3c(=O)[nH]2)CCCCCC4)cc(OC)c1OC	7.95% (active)
COc1cc(-c2nc3nc4sc(C)c(C)c4c(=O)n3[nH]2)cc(OC)c1OC	74.3% (inactive)
Cc1ccc2nc(SCC(=O)Nc3ccc(-c4nc5ccccc5s4)c(Cl)c3)[nH]c2c1	109% (inactive)
CSc1nc2nc3c(c(-c4ccc(C)cc4)c2c(=O)[nH]1)CN(C)C/C3=C\c1ccc(C)cc1	84.2% (inactive)
COc1ccc(CCN2C(=O)CCC3=C2CCCC3=O)cc1OC	98.1% (inactive)
COc1ccc2nc(N/N=C(\C)c3ccccn3)cc(C)c2c1	-25.1% (active)
O=CN1N=C(c2ccc(Cl)cc2)CC1c1cccc(Nc2ccnc3cc(Cl)ccc23)c1 (centres undefined)	13.4% (inactive)
O=C(/C=C/c1cccc(O)c1)c1cccc(-n2cc(-c3ccccc3)[nH]c2=O)c1	-45.4% (active)
Cc1n(Cc2ccc3ccccc3c2)c2ccccc2[n+]1Cc1ccc2ccccc2c1	-57.7% (active)
Nc1nc(SCc2cccnc2)c2ncn(C3OC(CO)C(O)C3O)c2n1 (centres undefined)	115% (inactive)
O=C(Nc1ccc(Cl)cc1)Nc1ccccc1CNc1nc(Nc2ccc(OCCN3CCCC3)cc2)ncc1Cl	-24.2% (active)
O=C1CSC(c2ccccc2O)N1c1nnc(Cn2ccnc2)o1 (centres undefined)	36.1% (inactive)
C[C@@H]1[C@H]2[C@H](C=C3[C@@H]4CC[C@H]5Cc6nc7c(nc6C[C@]5(C)[C@H]4C[C@@H](O)[C@@]32C)C[C@@H]2CC[C@H]3C4=C[C@@H]5O[C@@]6(CC[C@](C)(CO)O6)[C@@H](C)[C@@]5(O)[C@@]4(C)[C@H](O)C[C@@H]3[C@@]2(C)C7)O[C@]12CCC(C)(C)O2	-29.9% (active)
CC(C)=CCCC(C)c1ccc(C)c2c1OCN(CC1CCNCC1)C2 (centres undefined)	23.7% (inactive)
CCOC(=O)N1CCC(N=C2CSc3nnc(-c4cc(C(F)(F)F)cc(C(F)(F)F)c4)n3N2)CC1	29% (inactive)
Cc1cc(C)nc(NS(=O)(=O)c2ccc(Nc3nc4nc(SCc5ccccc5)nc(-c5ccc(O)cc5)c4c(=O)[nH]3)cc2)n1	66.7% (inactive)
[N-]=[N+]=NCc1cccc(/C(O)=C/C(=O)C(=O)O)c1	90.7% (inactive)
CC12CCC3C(=CCc4cc(O)ccc43)C1CCC2=O (centres undefined)	87.8% (inactive)
COc1cc(/C=C\C(C)=N\Nc2ccccc2)ccc1O	76.3% (inactive)
CCN(CC)CCOCC[C@H]1CC[C@H]2[C@@H]3[C@H](C)Cc4cc(OS(N)(=O)=O)ccc4[C@H]3CC[C@]12C	-56.4% (active)
NC(=O)c1cc(Cl)ccc1NC(=O)c1ccccc1-c1ccccc1	19% (inactive)
COc1ccc(C2=NN(C=O)C(c3cccc(Nc4ccnc5cc(Cl)ccc45)c3)C2)cc1 (centres undefined)	23.2% (inactive)
COC(=O)[C@H](CCCCNC(=O)OCc1ccccc1)NC(=O)[C@@H](NC(=O)Nc1cc(C(F)(F)F)cc(C(F)(F)F)c1)C(C)C	-20.6% [100 µM] (active)
O=C(NC1CCS(=O)(=O)C1)c1ccc(C(=O)c2ccccc2)cc1 (centres undefined)	72.8% (inactive)
Cc1cc(Br)c(C)cc1Br	103% (inactive)
Cc1ccc(C2=NNC(c3sc(Cl)nc3Cl)C2)cc1 (centres undefined)	97.9% (inactive)
Cc1ccc(-c2c3c(N)c4c(nc3nc3c2c(C)nn3-c2ccccc2)CCC4)cc1	85.6% (inactive)
COc1cc(/C(Cl)=C/C=C/C(=O)c2c(C)[n+]([O-])c3ccc(Cl)cc3[n+]2[O-])cc(OC)c1OC	19% (inactive)

Reference source for all entries: PubChem BioAssay (NCI)
